# assay explanation: preliminary kinetic studies: plasma levels after subcutaneous administration
# Assay type: in vivo
# run parameters: rabbit, sc, rabbits, subcutaneous administration of 1 mg/kg, after 7 days from the administration
Where a name gives a salt, the structure may show the parent alone.
result type: concentration at 7 days (ng/g)
Give just the numeric value; ng/g need not be written.

Per the records, this compound ( COC(=O)C1=C(C)NC(C)=C(C(=O)OC(C)(C)CN(C)CCC(c2ccccc2)c2ccccc2)C1c1cccc([N+](=O)[O-])c1 (racemic) [lercanidipine, lercanidipine hydrochloride] ) has concentration at 7 days equal to 500

* * *

# assay explanation: preliminary kinetic studies: plasma levels after subcutaneous administration
# Type: in vivo
# run parameters: rabbit, sc, rabbits, subcutaneous administration of 3 mg/kg, after 7 days from the administration
Structures can show the parent of a compound that is named as a salt.
result type: concentration at 7 days (ng/g)
// return numeric value only (unit: ng/g, not printed)

Kindly note the recorded concentration at 7 days for COC(=O)C1=C(C)NC(C)=C(C(=O)OC(C)(C)CN(C)CCC(c2ccccc2)c2ccccc2)C1c1cccc([N+](=O)[O-])c1 (racemic) [lercanidipine, lercanidipine hydrochloride] , which is 3200
